System: Cryptococcus neoformans clinical isolate CN3
Experiment: MIC, broth microdilution (CLSI M27-A3), CN3
Format: cell-based
Conditions: MIC-0, CN3, 35 °C 48 h
Quantity: MIC (µg/mL)

For orientation, consider the following solved cases.
>>> meas_value("CCCCCCCCCCCCS(=O)(=O)C[C@H]1O[C@H](O[C@@H]2[C@@H](O)[C@H](O[C@H]3O[C@H](CN)[C@@H](O)C[C@H]3N)[C@@H](N)C[C@H]2N)[C@H](O)[C@@H](N)[C@@H]1O")
0.975
>>> meas_value("CCCCCCCCCCCCc1cn(C[C@H]2O[C@H](O[C@@H]3[C@@H](O)[C@H](O[C@H]4O[C@H](CN)[C@@H](O)C[C@H]4N)[C@@H](N)C[C@H]3N)[C@H](O)[C@@H](N)[C@@H]2O)nn1")
0.975
>>> meas_value("CCCCCCCCCCCCSC[C@H]1O[C@H](O[C@@H]2[C@@H](O)[C@H](O[C@H]3O[C@H](CN)[C@@H](O)C[C@H]3N)[C@@H](N)C[C@H]2N)[C@H](O)[C@@H](N)[C@@H]1O")
0.48
>>> meas_value("CCCCCCCCCCCCOCC1OC(OC2C(N)CC(N)C(OC3OC(CN)C(O)CC3N)C2O)C(O)C(N)C1O (centres unmarked)")
3.9
>>> meas_value("CC[C@H](C)C[C@H](C)CCCCCCCCC(=O)N[C@H]1C[C@@H](O)[C@@H](NCCN)NC(=O)[C@@H]2[C@@H](O)CCN2C(=O)[C@H]([C@H](O)CCN)NC(=O)[C@H]([C@H](O)[C@@H](O)c2ccc(O)cc2)NC(=O)[C@@H]2C[C@@H](O)CN2C(=O)[C@H]([C@@H](C)O)NC1=O [CAS, caspofungin, reference compound]")
15.6

A: CCCCCCCCCCc1cn(C[C@H]2O[C@H](O[C@@H]3[C@@H](O)[C@H](O[C@H]4O[C@H](CN)[C@@H](O)C[C@H]4N)[C@@H](N)C[C@H]3N)[C@H](O)[C@@H](N)[C@@H]2O)nn1
B: CCCCCCCCCCCC(=O)NC[C@H]1O[C@H](O[C@@H]2[C@@H](O)[C@H](O[C@H]3O[C@H](CN)[C@@H](O)C[C@H]3N)[C@@H](N)C[C@H]2N)[C@H](O)[C@@H](N)[C@@H]1O
Query: Of A and B , whose reported MIC is the larger number? Pick one and reply with its label.
Response: B
